assayedSystem: T1, 4H3922-AA
T1 chain: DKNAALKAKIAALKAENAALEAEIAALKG
assayOverview: two-hybrid library CCmax;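 also: natural log of median RNA to DNA barcode read ratio; higher means stronger binding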
conditionContext: mean of both orientations
endpointName: interaction score

>  <binder>
DENAALEAEIAALKAEIAALKAKNAALEG [4H1103-AA]

>  <interaction score>
-1.44

$$$$
>  <binder>
DKIAALKAKIAALKAKNAALEAKNAALEG [4H2935-AA]

>  <interaction score>
-1.89

$$$$
>  <binder>
DKNAALKAEIAALEAENAALEAKIAALEG [4H3605-AA]

>  <interaction score>
-0.251

$$$$

A. DKIAALKAEIAALEAKIAALKAKNAALKG [4H2608-AA]
B. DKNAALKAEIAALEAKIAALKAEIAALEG [4H3625-AA]
Query: Sorting by interaction score in descending order, would A or B appear first? // return label of chosen record
Response: B
